- Test system: SK-MEL-5 melanoma
- PROTOCOL: NCI-60 one-dose screen, 48 h
- COND: 10 µM unless noted
The panel holds about 83,000 compounds, 20% with a hit somewhere; the sample as a whole holds those more often. Calls of active or inactive are those of the source. The calls were made as follows: active = growth percent below 10; inactive = the rest.
Answer with one of the outcomes active, inactive

Examples from the recorded data:
* CC(=O)Nc1ccccc1-c1nc2ccccc2s1 | inactive
* COC(=O)CCSC1=C(C)C(=O)c2ccccc2C1=O | inactive
* O=S(=O)(NCCCNc1nccc(-c2[nH]c(-c3ccccc3)nc2-c2ccc(F)c(O)c2)n1)c1ccccc1 | inactive
* CCCc1[nH]c(-c2cc(N)ccc2Cl)c2c1C(=O)CCCC2 | inactive
* Clc1ccc2[nH]cc(-c3cncn3CCc3ccc4c(c3)OCO4)c2c1 | inactive

Below: the item to evaluate.
[Q] Per the records of this test, what outcome belongs to `CCOC(=O)c1ccc(NC2=CC(=O)C(C)=C(C)C2=O)cc1` ?
[A] inactive

----------
- Test system: CCRF-CEM leukemia
- PROTOCOL: NCI-60 one-dose screen, 48 h (100 = growth as untreated, 0 = no growth, -100 = all killed)
- COND: 10 µM unless noted
About 83,000 compounds went through this panel and 20% of them were active in at least one assay; those are over-represented in the sample as a whole.
Items are presented alongside their recorded growth.
Your answer should be a plain number; it is taken to be in %.

// solved cases for growth follow
* COc1ccc(/C=N/NC(=O)c2c(N)nn(C)c2Nc2ccccc2)cc1Oc1ccccc1 | 94.3
* Cn1ncc2ncc(-c3ccc4ncc(C#N)c(N5CCc6cc(F)c(Cl)cc65)c4c3)cc21 | 28.4
* Oc1[nH]c2ccc(Cl)cc2c1N=Nc1nc(N=Nc2c(O)[nH]c3ccc(Cl)cc23)nc(N2CCOCC2)n1 | 20.3
* COC(=O)CCSC1=C(C)C(=O)c2ccccc2C1=O | 45.7
* O=C(Nc1ccc(Cl)c(C(F)(F)F)c1)Nc1ccc2c(ccn2C(=O)c2cccc(F)c2)c1 | 15.8
* O=C(CSc1nc2ccccc2c(=O)n1-c1ccccc1)Nc1ccc(S(=O)(=O)Nc2nccs2)cc1 | 34.8
* O=C1C(N2CCN(c3ccccc3)CC2)=C(Cl)C(=O)c2ncccc21 | 6.08
* COc1ccc(NC(=O)CCCCCCNC(=O)C(O)(O)C(F)(F)F)cc1 | 26.2

[Q] Give the measured growth of `N#C/C(=C\c1ccc(-c2ccc(Cl)cc2)o1)C(=O)Nc1ncc(Cc2ccc(Br)cc2)s1` .
[A] 34.8

----------
- Tested on: NCI-H226 lung
- PROTOCOL: NCI-60 one-dose screen, 48 h (100 = growth as untreated, 0 = no growth, -100 = all killed)
- COND: 10 µM unless noted
Compounds without any hit were thinned out: in the full panel of roughly 83,000, 20% have a hit.
MEASURE_NAME: growth (%)
Your answer should be a plain number; it is taken to be in %.

// solved cases for growth follow
* O=C(/C=C/c1ccccc1)c1cccc(O)c1 | 93.4
* COCCOc1ccc2ncc(C#Cc3cncc(C(=O)Nc4ccc(CN5CCN(C)CC5)c(C(F)(F)F)c4)c3)n2n1 | -12.7
* N#Cc1c(-c2cccs2)cc(-c2cnccn2)nc1SCC(=O)N/N=C/c1cccs1 | 68.9
* CN(C)c1ccc(/C=N/Nc2nc(N/N=C/c3ccc(N(C)C)cc3)nc(N3CCCCC3)n2)cc1 | 102

The record that follows has no growth shown yet.
[Q] Test system NCI-H226 lung; read-out growth; what value for `CN(C)c1ccc(-c2cc(-c3c[nH]c4ccccc34)nc(N)c2C#N)cc1` ?
[A] 62.8

----------
Items are presented alongside their recorded growth.
- Test system: M14 melanoma
- PROTOCOL: NCI-60 one-dose screen, 48 h (100 = growth as untreated, 0 = no growth, -100 = all killed)
- COND: 10 µM unless noted
This is part of a sample that, as a whole, favours compounds with a hit. Of some 83,000 tested, about 20% had one in any assay.
Your answer should be a plain number; it is taken to be in %.

// solved cases for growth follow
• O=C(/C=C/c1csc(Br)n1)NO = 27.1
• O=C(CSc1nc2ccccc2c(=O)n1CCc1ccccc1)Nc1ccc(S(=O)(=O)Nc2ccc(Cl)nn2)cc1 = 96.2

[Q] Give the measured growth of CCCCN1C(=O)/C(=c2\sc3n(c2=O)C2C(NN=3)N(CC)C(=O)N2CC)c2cccc(C)c21 (configuration not stated) .
[A] 27

[Q] Give the measured growth of CC(=O)C1=C(C)NC(NNc2ccccc2)=NC1c1ccc([N+](=O)[O-])cc1 (configuration not stated) .
[A] 101

[Q] Give the measured growth of `COc1ccc(/C=N/NC(=O)c2c(N)nn(C)c2Nc2ccccc2)cc1` .
[A] 13

[Q] Give the measured growth of `Cc1ccc2c(n1)C(=O)C(Cl)=C(Nc1ccc(C(C)C)cc1)C2=O` .
[A] 25.6

[Q] Give the measured growth of `CCOC(=O)C(=O)Nc1ccc2c(ccn2C(=O)c2cccc(F)c2)c1` .
[A] 95.3

[Q] Give the measured growth of `O=C(CCCCCCNC(=O)C(O)(O)C(F)(F)F)Nc1ncc(-c2ccc(Br)cc2)s1` .
[A] 8.94

[Q] Give the measured growth of `COC(=O)c1ccc(NC2=C(Cl)C(=O)C(C)=C(C)C2=O)cc1` .
[A] 45.8

[Q] Give the measured growth of `Cc1ccc(C(=O)Nc2ccc(CNCCN3CCOCC3)c(C(F)(F)F)c2)cc1C#Cc1cnc2cccnn12` .
[A] -7.89

----------
- Tested on: A549/ATCC NSCLC
- PROTOCOL: NCI-60 one-dose screen, 48 h (100 = growth as untreated, 0 = no growth, -100 = all killed)
- COND: 10 µM unless noted
The panel holds about 83,000 compounds, 20% with a hit somewhere; the sample as a whole holds those more often.
Kindly note that classification relies on growth with these boundaries: class A = under 20%, class B = from 20% up to 50%, class C = 50% and over

Examples from the recorded data:
* CNC(=O)c1cc(N2CCc3cc(NC(=O)Nc4ccc(N5CCOCC5)c(C(F)(F)F)c4)ccc32)ccn1 | class B
* CCCCCCN1C=C/C(=C\C(=O)n2ccc3ccccc32)c2ccccc21 | class C
* Cn1ncc2ncc(-c3ccc4ncc(C#N)c(N5CCc6cc(F)c(Cl)cc65)c4c3)cc21 | class B
* CC(C)Sc1nc(-c2ccccc2)c(C#N)c(N2CCOCC2)n1 | class B
* COc1ccc(CC(C)=C(c2ccc(OCCN3CCCC3)cc2)c2ccc(OCCN3CCCC3)cc2)cc1 | class A

[Q] Which growth band matches `CC(C)=CCC[C@](C)(O)[C@H]1CC[C@]2(C)[C@@H]1CC[C@@H]1[C@@]3(C)CC[C@H](N)C(C)(C)[C@@H]3CC[C@]12C` ?
[A] class C

[Q] Which growth band matches `NC(=S)n1c(=O)n(-c2cccc(C(F)(F)F)c2)c(=O)c2cc(-c3ccc(F)cc3F)ccc21` ?
[A] class A

[Q] Which growth band matches `COc1cc(NC(=O)Nc2cccc(-c3cc(=O)c4c(OC)c(OC)c(OC)cc4o3)c2)cc(OC)c1OC` ?
[A] class C

[Q] Which growth band matches `O=C(CSc1nc2ccccc2c(=O)n1-c1ccc(Cl)cc1)N/N=C/c1ccc(Oc2ccc(Cl)cc2)cc1` ?
[A] class A

[Q] Which growth band matches `N#C/C(=C\c1ccc(-c2ccc(Cl)c(Cl)c2)o1)C(=O)Nc1ncc(Cc2ccc(Cl)cc2)s1` ?
[A] class A

[Q] Which growth band matches `CC(=O)OC[C@]12CC[C@@H](C(=O)/C=C/c3cccnc3)[C@@H]1[C@H]1CC[C@@H]3[C@@]4(C)CC[C@H](OC(C)=O)C(C)(C)[C@@H]4CC[C@@]3(C)[C@]1(C)CC2` ?
[A] class B

[Q] Which growth band matches `O=C(CSc1nc2ccccc2c(=O)n1-c1ccccc1)Nc1ccc(S(=O)(=O)Nc2nccs2)cc1` ?
[A] class C

[Q] Which growth band matches CN1CC[C@@H]2[C@@]3(C)CC[C@H](O)C(C)(C)[C@@H]3CC[C@@]2(C)[C@]2(C)CC[C@@]3(CO)CCC(C)(C)C[C@@H]3C12 (stereo partly specified) ?
[A] class C

----------
- Tested on: MOLT-4 leukemia
- PROTOCOL: NCI-60 one-dose screen, 48 h (100 = growth as untreated, 0 = no growth, -100 = all killed)
- COND: 10 µM unless noted
The panel holds about 83,000 compounds, 20% with a hit somewhere; the sample as a whole holds those more often.
Items are presented alongside their recorded growth.
Your answer should be a plain number; it is taken to be in %.

* CC(=O)c1c([Si](C)(C)C)c2cc(C#N)ccn2c1C(=O)c1ccc(Br)cc1 | 85.3

[Q] Give the measured growth of C#CCOc1ccccc1C(OC(=O)c1ccccc1)C(=O)NC(C)(C)C(C)(C)C (stereo not given) .
[A] 40.6

[Q] Give the measured growth of `Cc1ccc(OCc2occc2C(=O)N2CCOCC2)cc1` .
[A] 109

[Q] Give the measured growth of `CCCNNC(=O)c1ccc(-c2ccc(NC(=O)CCCCCCC(=O)N[C@H](C(=O)N3C[C@H](O)C[C@H]3C(=O)N[C@@H](C)c3ccc(-c4scnc4C)cc3)C(C)(C)C)cc2)cc1` .
[A] 21.1

[Q] Give the measured growth of `c1ccc(-c2cn3c(-c4c[nH]c5ccccc45)csc3n2)cc1` .
[A] 66.9

[Q] Give the measured growth of `O=C(/C=C/c1ccccc1Cl)Nc1ncc(Cc2cc(Cl)ccc2Cl)s1` .
[A] 24

[Q] Give the measured growth of `COC(=O)c1cccc(NC2=C(Cl)C(=O)C(C)=C(C)C2=O)c1` .
[A] 11.3

[Q] Give the measured growth of `Brc1cc(-c2cc(-c3ccc4c(c3)OC=CO4)[nH]n2)cs1` .
[A] 78.7

The reported measurements were obtained from PubChem BioAssay (NCI).
